Biological target: human α4β2 (LS) (Homo sapiens, UniProt P17787+P43681)
Sequence (P43681 29-627 limits assumed): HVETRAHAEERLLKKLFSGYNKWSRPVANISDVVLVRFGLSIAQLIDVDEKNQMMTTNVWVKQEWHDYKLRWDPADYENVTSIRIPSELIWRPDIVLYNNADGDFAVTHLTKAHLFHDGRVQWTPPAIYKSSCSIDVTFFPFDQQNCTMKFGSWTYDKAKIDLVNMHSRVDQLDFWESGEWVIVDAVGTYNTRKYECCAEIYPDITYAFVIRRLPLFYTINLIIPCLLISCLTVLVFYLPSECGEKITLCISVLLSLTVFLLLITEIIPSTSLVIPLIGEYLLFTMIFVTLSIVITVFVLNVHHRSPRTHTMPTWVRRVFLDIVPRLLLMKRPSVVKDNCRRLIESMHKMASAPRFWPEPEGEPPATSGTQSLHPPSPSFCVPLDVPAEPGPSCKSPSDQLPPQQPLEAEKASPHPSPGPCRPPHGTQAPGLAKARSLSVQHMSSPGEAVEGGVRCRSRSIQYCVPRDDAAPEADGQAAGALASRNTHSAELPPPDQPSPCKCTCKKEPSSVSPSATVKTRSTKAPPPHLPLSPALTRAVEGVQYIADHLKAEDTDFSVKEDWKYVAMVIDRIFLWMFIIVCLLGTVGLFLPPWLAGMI
Sequence (P17787 26-502): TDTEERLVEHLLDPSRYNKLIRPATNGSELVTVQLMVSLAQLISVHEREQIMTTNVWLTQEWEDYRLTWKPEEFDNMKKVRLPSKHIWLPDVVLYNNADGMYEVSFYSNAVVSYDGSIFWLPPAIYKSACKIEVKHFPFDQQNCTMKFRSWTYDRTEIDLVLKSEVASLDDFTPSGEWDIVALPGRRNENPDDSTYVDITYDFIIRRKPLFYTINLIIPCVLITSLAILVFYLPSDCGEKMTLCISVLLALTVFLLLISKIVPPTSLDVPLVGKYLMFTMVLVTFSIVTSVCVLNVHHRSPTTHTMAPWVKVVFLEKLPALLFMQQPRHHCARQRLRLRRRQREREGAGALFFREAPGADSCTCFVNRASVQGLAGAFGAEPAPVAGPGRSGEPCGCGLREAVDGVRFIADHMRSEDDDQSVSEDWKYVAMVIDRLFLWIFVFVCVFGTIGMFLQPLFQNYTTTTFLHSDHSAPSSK
Assay: Calcium flux inhibition, SH-EP1-human α4β2 maintained at 37° C. (LS)
Format: cell-based
Settings: cells maintained at 37° C. (LS), nicotine 10 μM; read-out: Human α4β2 Ca Flux IC50 [37C/LS]
Method: SH-EP1-human α4β2 (Eaton et al., 2003), cell lines were obtained from Dr. Ron Lukas (Barrow Neurological Institute). […] Forty-eight hours prior to each experiment, cells were plated in 96 well black-walled, clear bottom plates (Corning, Corning, N.Y.) at 60-100,000 cells/well. […] Plates were transferred to a FLIPR Tetra fluorometric imaging plate reader (Molecular Devices) for addition of compound and monitoring of fluorescence (excitation 485 nm, emission 525 nm). […]
Measured parameter: pIC50
Field pIC50 (float): negative decimal logarithm of the concentration in molar.

Worked cases, answers included:
In [3]: df
Out[3]:
                                   molecule  measurement
0  CCCCC12CCCC1(NC)C1CCC2C1 (stereo not drawn)         6.85
1  CNC12CCCC1(CO)C1CCC2C1 (stereo not drawn)         6.42
2     CN(C)[C@]12CCC[C@H]1[C@@H]1CC[C@H]2C1         6.39
3  [2H]C([2H])NC12CCCC1(C([2H])([2H])[2H])C1CCC2C1 (stereo not drawn)         7.12

Kindly note the recorded pIC50 for CC[C@@]12CCC[C@]1(N(C)C)[C@H]1CC[C@@H]2C1 , which is 6.15

Kindly note the recorded pIC50 for CC[C@]12CCC[C@@]1(N(C)C)[C@@H]1CC[C@H]2C1 , which is 6.43

Kindly note the recorded pIC50 for CN(C)[C@@]12CCC[C@@H]1[C@H]1CC[C@@H]2C1 , which is 6.30

Kindly note the recorded pIC50 for C[N+](C)(C)[C@@]12CCC[C@@H]1[C@H]1CC[C@@H]2C1 , which is 6.59

Kindly note the recorded pIC50 for C[N+](C)(C)[C@]12CCC[C@H]1[C@@H]1CC[C@H]2C1 , which is 6.42

====

Target: Human Ganglion (SH-SY5Y cells) (Homo sapiens, UniProt P30532+P30926+P32297)
Construct: endogenous in cells; host or cells: SH-SY5Y human neuroblastoma cells
Sequence (P32297 32-505): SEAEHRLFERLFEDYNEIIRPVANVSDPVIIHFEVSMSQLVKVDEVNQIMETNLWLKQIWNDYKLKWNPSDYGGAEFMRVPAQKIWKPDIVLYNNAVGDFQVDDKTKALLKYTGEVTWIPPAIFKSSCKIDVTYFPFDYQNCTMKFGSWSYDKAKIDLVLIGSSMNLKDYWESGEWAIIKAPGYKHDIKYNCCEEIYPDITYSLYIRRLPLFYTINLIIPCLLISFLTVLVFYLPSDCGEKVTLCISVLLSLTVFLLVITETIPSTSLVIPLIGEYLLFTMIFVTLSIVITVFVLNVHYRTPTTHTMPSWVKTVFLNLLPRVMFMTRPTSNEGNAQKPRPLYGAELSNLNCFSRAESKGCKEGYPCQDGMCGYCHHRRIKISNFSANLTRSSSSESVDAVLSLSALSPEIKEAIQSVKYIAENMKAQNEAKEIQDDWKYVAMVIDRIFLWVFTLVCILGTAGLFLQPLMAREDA
Sequence (P30926 22-498): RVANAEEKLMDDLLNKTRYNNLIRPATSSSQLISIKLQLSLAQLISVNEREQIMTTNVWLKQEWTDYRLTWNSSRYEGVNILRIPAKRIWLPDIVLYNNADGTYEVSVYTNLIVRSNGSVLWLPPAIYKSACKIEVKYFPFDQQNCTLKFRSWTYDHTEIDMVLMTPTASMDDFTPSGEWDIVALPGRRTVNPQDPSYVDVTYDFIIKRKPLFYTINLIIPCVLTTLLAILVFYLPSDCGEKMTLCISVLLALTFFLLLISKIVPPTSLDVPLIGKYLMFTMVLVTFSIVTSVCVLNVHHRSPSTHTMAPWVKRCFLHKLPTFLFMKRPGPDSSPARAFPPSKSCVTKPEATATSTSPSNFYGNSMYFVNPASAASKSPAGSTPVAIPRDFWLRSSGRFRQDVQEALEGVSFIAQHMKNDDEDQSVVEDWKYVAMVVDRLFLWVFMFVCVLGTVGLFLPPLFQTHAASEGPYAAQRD
Sequence (P30532 23-468): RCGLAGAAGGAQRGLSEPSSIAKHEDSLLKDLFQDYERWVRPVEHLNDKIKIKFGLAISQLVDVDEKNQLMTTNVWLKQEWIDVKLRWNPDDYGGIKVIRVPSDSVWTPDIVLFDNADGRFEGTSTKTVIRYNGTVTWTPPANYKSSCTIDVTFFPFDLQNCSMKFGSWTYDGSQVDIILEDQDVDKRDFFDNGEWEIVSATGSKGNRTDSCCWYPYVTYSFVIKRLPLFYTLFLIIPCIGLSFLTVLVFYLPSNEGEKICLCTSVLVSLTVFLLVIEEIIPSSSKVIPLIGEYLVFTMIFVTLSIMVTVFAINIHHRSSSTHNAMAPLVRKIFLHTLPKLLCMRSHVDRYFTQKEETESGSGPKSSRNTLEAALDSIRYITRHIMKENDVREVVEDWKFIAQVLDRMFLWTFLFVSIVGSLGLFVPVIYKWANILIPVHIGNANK
Experiment: Calcium flux inhibition, human ganglion (SH-SY5Y cells)
Format: cell-based
Method: Forty-eight hours prior to each experiment, cells were plated in 96 well black-walled, clear bottom plates (Corning, Corning, N.Y.) at 60-100,000 cells/well. […] Plates were transferred to a FLIPR Tetra fluorometric imaging plate reader (Molecular Devices) for addition of compound and monitoring of fluorescence (excitation 485 nm, emission 525 nm). […] The positive control was defined as 100% response and the results of the test compounds were expressed as a percentage of the positive control. […]
Measured parameter: pIC50
Field pIC50 (float): negative decimal logarithm of the concentration in molar.

Form: item CCCCC12CCCC1(NC)C1CCC2C1 (stereo not shown) ; test system Human Ganglion (SH-SY5Y cells) (Homo sapiens, UniProt P30532+P30926+P32297); pIC50: 7.62

====

molecular target: human α3β4 (Homo sapiens, UniProt P30926+P32297); construct: host or cells: CHO; experiment: Calcium flux inhibition, CHO-human α3β4 cells; format: cell-based; settings: nicotine 20 μM
Sequence (P32297 32-505): as the sequence (P32297 32-505) above
Sequence (P30926 22-498): as the sequence (P30926 22-498) above
Measured parameter: Human CHO α3β4 Ca Flux Imax (% inh)
Numeric answer only, unit % inh assumed.

Worked cases, answers included:
>>> df
                                   compound  units_of_measure  measurement
0  CC[C@@]12CCC[C@]1(N(C)C)[C@H]1CC[C@@H]2C1             % inh           95
1  CC[C@]12CCC[C@@]1(N(C)C)[C@@H]1CC[C@H]2C1             % inh           96
2  CCCCC12CCCC1(NC)C1CCC2C1 (stereo not drawn)             % inh           96
3  CCCC12CCCC1(NC)C1CCC2C1 (stereo not drawn)             % inh           96
4    CC[C@@]12CCC[C@]1(NC)[C@H]1CC[C@@H]2C1             % inh           97
5      CN[C@@]12CCC[C@@H]1[C@H]1CC[C@@H]2C1             % inh           97
6   CN(C)[C@@]12CCC[C@@H]1[C@H]1CC[C@@H]2C1             % inh           96
7     CN(C)[C@]12CCC[C@H]1[C@@H]1CC[C@H]2C1             % inh           97

Form: item CC[C@]12CCC[C@@]1(NC)[C@@H]1CC[C@H]2C1 ; test system human α3β4 (Homo sapiens, UniProt P30926+P32297); Human CHO α3β4 Ca Flux Imax: 97

Form: item C[N+](C)(C)[C@@]12CCC[C@@H]1[C@H]1CC[C@@H]2C1 ; test system human α3β4 (Homo sapiens, UniProt P30926+P32297); Human CHO α3β4 Ca Flux Imax: 94

Form: item CCC12CCCC1(NC)C1CCC2C1 (stereo not drawn) ; test system human α3β4 (Homo sapiens, UniProt P30926+P32297); Human CHO α3β4 Ca Flux Imax: 97

Form: item CN[C@]12CCC[C@H]1[C@@H]1CC[C@H]2C1 ; test system human α3β4 (Homo sapiens, UniProt P30926+P32297); Human CHO α3β4 Ca Flux Imax: 97

====

Parameter Human α4β2 Ca Flux Imax [29C/HS]: see the listing below.
biological target: human α4β2 (HS) (Homo sapiens, UniProt P17787+P43681); assay: Calcium flux inhibition, SH-EP1-human α4β2 treated at 29° C. (HS); type: cell-based; conditions: 29° C.-treated cells (HS), nicotine 1 μM
Sequence (P43681 29-627 limits assumed): as the sequence (P43681 29-627 limits assumed) above
Sequence (P17787 26-502): as the sequence (P17787 26-502) above
Numeric answer only, unit % inh assumed.

In [3]: df
Out[3]:
                                 compound                measured_parameter  measurement
0  CC[C@@]12CCC[C@]1(NC)[C@H]1CC[C@@H]2C1  Human α4β2 Ca Flux Imax [29C/HS]           98
1    CN[C@@]12CCC[C@@H]1[C@H]1CC[C@@H]2C1  Human α4β2 Ca Flux Imax [29C/HS]           97

Shifting focus to the compound that follows.
Kindly note the recorded Human α4β2 Ca Flux Imax [29C/HS] for CCC12CCCC1(NC)C1CCC2C1 (stereo not drawn) , which is 100

====

Parameter IC50: see the listing below.
target: human α3β4 (Homo sapiens, UniProt P30926+P32297); construct: host or cells: CHO; test: Calcium flux inhibition, CHO-human α3β4 cells; type: cell-based; settings: nicotine 20 μM; read-out: Human CHO α3β4 Ca Flux IC50
For clarity, give the value followed by its unit.

                                   compound  measurement
0   CN(C)[C@@]12CCC[C@@H]1[C@H]1CC[C@@H]2C1       190 nM
1  CCCCC12CCCC1(NC)C1CCC2C1 (stereo not drawn)       300 nM
2  CC[C@]12CCC[C@@]1(N(C)C)[C@@H]1CC[C@H]2C1       200 nM
3  C[N+](C)(C)[C@@]12CCC[C@@H]1[C@H]1CC[C@@H]2C1       940 nM
4  CC[C@@]12CCC[C@]1(N(C)C)[C@H]1CC[C@@H]2C1       240 nM

Shifting focus to the compound that follows.
Kindly note the recorded IC50 for CN(C)[C@]12CCC[C@H]1[C@@H]1CC[C@H]2C1 , which is 230 nM

====

Parameter IC50: see the listing below.
target: Human Ganglion (SH-SY5Y cells) (Homo sapiens, UniProt P30532+P30926+P32297); construct: endogenous in cells; host or cells: SH-SY5Y human neuroblastoma cells; assay: Calcium flux inhibition, human ganglion (SH-SY5Y cells); assay type: cell-based; details: SH-SY5Y cells, nicotine 20 μM; read-out: Human Ganglion Ca Flux IC50
Numeric answer only, unit nM assumed.

Worked cases, answers included:
In [3]: df
Out[3]:
                                   compound  measured_parameter  units_of_measure  measurement
0        CN[C@]12CCC[C@H]1[C@@H]1CC[C@H]2C1                IC50                nM          380
1      CN[C@@]12CCC[C@@H]1[C@H]1CC[C@@H]2C1                IC50                nM          490
2  C[N+](C)(C)[C@]12CCC[C@H]1[C@@H]1CC[C@H]2C1                IC50                nM         1800
3  CNC12CCCC1(CO)C1CCC2C1 (stereo not drawn)                IC50                nM          200
4  CCCC12CCCC1(NC)C1CCC2C1 (stereo not drawn)                IC50                nM           30

Shifting focus to the compound that follows.
Kindly note the recorded IC50 for [2H]C([2H])NC12CCCC1(C([2H])([2H])[2H])C1CCC2C1 (stereo not drawn) , which is 83
